Where do these numbers come from? They come from patent US20230165846A1.

Target: GLP-1 Receptor (Homo sapiens, UniProt P43220)
Sequence (P43220 24-463): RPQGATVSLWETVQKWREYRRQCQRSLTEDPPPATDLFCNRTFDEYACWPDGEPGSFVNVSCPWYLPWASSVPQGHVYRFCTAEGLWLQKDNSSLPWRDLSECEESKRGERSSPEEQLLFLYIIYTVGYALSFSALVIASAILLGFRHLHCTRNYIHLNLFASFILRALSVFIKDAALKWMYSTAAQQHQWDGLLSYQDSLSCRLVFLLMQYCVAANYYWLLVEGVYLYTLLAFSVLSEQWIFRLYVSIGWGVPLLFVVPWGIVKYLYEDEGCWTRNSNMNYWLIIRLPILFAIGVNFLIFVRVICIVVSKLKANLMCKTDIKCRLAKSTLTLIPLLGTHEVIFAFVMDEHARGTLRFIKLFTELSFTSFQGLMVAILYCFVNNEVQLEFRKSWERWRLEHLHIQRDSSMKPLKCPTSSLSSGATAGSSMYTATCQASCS
Test: GLP-1R agonist cAMP stimulation assay, Method 1 (DiscoverX CHO-K1, enzyme fragment complementation)
Type: cell-based
Details: CHO-K1 cell line (DiscoverX) stably expressing GLP-1 Receptor; incubation 30 or 60 min at 37° C.; geometric mean where n>=2; read-out: GLP1R cAMP Stimulation DR: EC50 (nM) Method 1
Classify: Y when EC50 is strictly less than 0.1 nM; N when EC50 is not.

Worked examples follow.
compound="O=C(O)c1ccc2nc(CC3CC=C(c4ccnc(OCc5ccc(Cl)cc5F)n4)CC3)n(C[C@@H]3CCO3)c2n1 (stereo partly shown) [Compound 104a]" target_desc="GLP-1 Receptor (Homo sapiens, UniProt P43220)" qualitative_label=N
compound="O=C(O)c1ccc2nc(CC3CC=C(c4nccc(OCc5ccc(Cl)cc5F)n4)CC3)n(C[C@@H]3CCO3)c2n1 (stereo partly shown) [Compound 103a]" target_desc="GLP-1 Receptor (Homo sapiens, UniProt P43220)" qualitative_label=Y
compound="O=C(O)c1ccc2nc(COc3cc(-c4cccc(OCc5ccc(Cl)cc5F)c4)ccn3)n(C[C@@H]3CCO3)c2n1 [Compound 110aw]" target_desc="GLP-1 Receptor (Homo sapiens, UniProt P43220)" qualitative_label=N
compound="N#Cc1ccc(COc2nccc(C3=CCC(Cc4nc5ccc(C(=O)O)nc5n4C[C@@H]4CCO4)CC3)n2)c(F)c1 (stereo partly shown) [Compound 105a]" target_desc="GLP-1 Receptor (Homo sapiens, UniProt P43220)" qualitative_label=N
compound="O=C(O)c1ccc2nc(Cn3ccc(-c4cccc(OCc5ccc(Cl)cc5F)n4)cc3=O)n(C[C@@H]3CCO3)c2c1 [Compound 107aw]" target_desc="GLP-1 Receptor (Homo sapiens, UniProt P43220)" qualitative_label=N

Exercise: is_below(EC50, 0.1 nM) for Cc1cn(Cc2nc3ccc(C(=O)O)nc3n2C[C@@H]2CCO2)c(=O)cc1-c1cccc(OCc2ccc(Cl)cc2F)n1 [Compound 104aw] ?
Key: N

Exercise: Also check O=C(O)c1ccc2nc(CC3CC=C(c4cccc(OCc5ccc(Cl)cc5F)n4)CC3)n(C[C@@H]3CCO3)c2n1 (stereo partly shown) [Compound 102a]
Key: Y
